- Tested on: Aspergillus niger
- ASSAY NAME: Antifungal activity against Aspergillus niger MTCC 282 by broth dilution method
- Type: functional
RECORDED METRIC: MIC

Query: Recorded MIC for "O=c1oc2ccc3ccccc3c2cc1-c1ccc2c(=O)oc3ccccc3c2n1" , please?
Response: > 1000 µg/mL

Query: Recorded MIC for "Cc1cccc2c1oc(=O)c1ccc(-c3cc4ccccc4oc3=O)nc12" , please?
Response: > 1000 µg/mL

Query: Recorded MIC for "COc1cccc2cc(-c3ccc4c(=O)oc5c(C)cccc5c4n3)c(=O)oc12" , please?
Response: > 1000 µg/mL

Query: Recorded MIC for "O=c1oc2ccccc2cc1-c1ccc2c(=O)oc3ccccc3c2n1" , please?
Response: 500 µg/mL

Query: Recorded MIC for "COc1cccc2cc(-c3ccc4c(=O)oc5ccccc5c4n3)c(=O)oc12" , please?
Response: 1000 µg/mL

Query: Recorded MIC for "Cc1ccc2oc(=O)c3ccc(-c4cc5c(ccc6ccccc65)oc4=O)nc3c2c1" , please?
Response: 500 µg/mL

Query: Recorded MIC for "Cc1ccc2oc(=O)c3ccc(-c4cc5ccccc5oc4=O)nc3c2c1" , please?
Response: > 1000 µg/mL

Query: Recorded MIC for "COc1cccc2cc(-c3ccc4c(=O)oc5ccc(C)cc5c4n3)c(=O)oc12" , please?
Response: 500 µg/mL

Query: Recorded MIC for "COc1cccc2cc(-c3ccc4c(=O)oc5ccc(Cl)cc5c4n3)c(=O)oc12" , please?
Response: 500 µg/mL

Query: Recorded MIC for "O=c1oc2ccccc2cc1-c1ccc2c(=O)oc3ccc(Cl)cc3c2n1" , please?
Response: > 1000 µg/mL

Query: Recorded MIC for "COC1=CC(=O)C[C@@H](C)[C@]12Oc1c(Cl)c(OC)cc(OC)c1C2=O" , please?
Response: 100 µg/mL

Query: Recorded MIC for "Cc1cccc2c1oc(=O)c1ccc(-c3cc4c(ccc5ccccc54)oc3=O)nc12" , please?
Response: > 1000 µg/mL

Query: Recorded MIC for "O=c1oc2ccc3ccccc3c2cc1-c1ccc2c(=O)oc3ccc(Cl)cc3c2n1" , please?
Response: 1000 µg/mL

Data provenance: ChEMBL document CHEMBL3046207
